Where do the numbers come from? From BindingDB's records for doi:10.1016/j.bmc.2008.11.012.

- TGT: Mu-type opioid receptor (Rattus norvegicus, UniProt P33535)
- Sequence (P33535 whole entry): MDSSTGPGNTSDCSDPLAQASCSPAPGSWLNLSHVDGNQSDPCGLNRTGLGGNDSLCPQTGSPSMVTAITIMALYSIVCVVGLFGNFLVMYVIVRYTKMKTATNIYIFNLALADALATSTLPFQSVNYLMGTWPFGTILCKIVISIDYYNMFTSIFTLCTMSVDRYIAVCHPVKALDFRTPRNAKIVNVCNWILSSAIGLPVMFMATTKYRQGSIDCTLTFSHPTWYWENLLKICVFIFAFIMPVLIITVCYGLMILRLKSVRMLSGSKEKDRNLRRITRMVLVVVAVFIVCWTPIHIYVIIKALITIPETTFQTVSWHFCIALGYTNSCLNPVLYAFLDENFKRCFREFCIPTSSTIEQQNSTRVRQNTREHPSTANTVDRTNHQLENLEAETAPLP
pKi: −log10 of the molar value.

{"STRUCTURE": "Cc1ccc2nc(C=Cc3ccc(Cl)cc3)nc(N[C@H]3CC[C@@H](N=C(N)N)CC3)c2c1", "pKi": 7.22}
